- MEASUREMENT_TARGET: CD71 on SK-BR-3 cells (human, UniProt P02786 1-760)
- Sequence (P02786 whole entry): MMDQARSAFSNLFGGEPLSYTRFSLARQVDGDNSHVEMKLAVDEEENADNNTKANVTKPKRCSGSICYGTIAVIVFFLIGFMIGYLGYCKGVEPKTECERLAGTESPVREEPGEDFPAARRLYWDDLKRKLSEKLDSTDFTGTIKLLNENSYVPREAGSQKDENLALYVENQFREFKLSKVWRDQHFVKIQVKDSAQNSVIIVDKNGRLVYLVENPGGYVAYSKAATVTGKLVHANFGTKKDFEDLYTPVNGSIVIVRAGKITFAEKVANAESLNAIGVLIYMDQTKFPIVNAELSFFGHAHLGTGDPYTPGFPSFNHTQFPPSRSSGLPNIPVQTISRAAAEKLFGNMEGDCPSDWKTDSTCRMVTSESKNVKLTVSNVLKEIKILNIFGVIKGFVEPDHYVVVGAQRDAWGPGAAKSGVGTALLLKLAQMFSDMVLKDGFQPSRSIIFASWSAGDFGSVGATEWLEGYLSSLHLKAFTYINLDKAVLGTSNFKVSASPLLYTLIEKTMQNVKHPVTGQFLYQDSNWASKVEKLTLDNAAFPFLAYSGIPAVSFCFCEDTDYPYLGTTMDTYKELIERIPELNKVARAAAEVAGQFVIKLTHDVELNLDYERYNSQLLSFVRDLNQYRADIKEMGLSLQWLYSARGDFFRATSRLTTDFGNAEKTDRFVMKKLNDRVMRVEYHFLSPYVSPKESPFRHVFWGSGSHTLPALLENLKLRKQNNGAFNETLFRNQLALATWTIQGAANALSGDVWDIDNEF
- METHOD_NOTES: cell-based or functional assay
Note to self: IC50, SKBR-3 viability, MMAF conjugate, second unlabelled column (+/- human transferrin) under 10 nM means condition met, ties and anything higher get condition not met.

BINDER: SEQ ID NO 235 (designed binder, FN3 domain) MLPAPKNLVVSRVTEDSARLSWTAPDAAFDSFSINYREWWSDGEAIYLPVPGSERSYDLTGLKPGTEYAVYIQGVKGGSRSFPLHAWFTT
DISCRETE_LABEL: condition not met

BINDER: SEQ ID NO 112 (designed binder, FN3 domain) MLPAPKNLVVSRVTEDSARLSWTAPDAAFDSFFIAYFEFANPGEAIVLTVPGSERSYDLTGLKPGTEYKVVIQGVKGGTPSEPLSAISTT
DISCRETE_LABEL: condition met

BINDER: SEQ ID NO 303 (designed binder, FN3 domain) MLPAPKNLVVSRVTEDSARLSWTAPDAAFDSFFIAYFEFANPGEAIVLTVPGSERSYDLTGLKPGTEYKVVIQGVKGGTPSEPLSAIFTT
DISCRETE_LABEL: condition not met

BINDER: SEQ ID NO 257 (designed binder, FN3 domain) MLPAPKNLVVSRVTEDSARLSWTAPDAAFDSFHIVYHEPRPSGEAIVLTVPGSERSYDLTGLKPGTEYEVGIVSVKGGDLSVPLSAIFTT
DISCRETE_LABEL: condition met

BINDER: SEQ ID NO 296 (designed binder, FN3 domain) MLPAPKNLVVSRVTEDSARLSWTAPDAAFDSFFIGYLEPQPPGEAIILTVPGSERSYDLTGLKPGTEYNVTIQGVKGGFPSMPLSAIFTT
DISCRETE_LABEL: condition not met

All values here come from patent US20210145976A1.
